Tested on: BRAF-MEK-ERK cascade (activated BRAF (V599E), unactive MEK1, unactive MAP Kinase 2/ERK2)
Assay: BRAF-MEK-ERK enzymatic cascade assay (TR-FRET)
Type: biochemical, human
Conditions: compounds screened at 10 μM, 45 minutes pre-incubation with enzymes, 100 μM ATP
Procedure: A BRAF-MEK-ERK cascade assay is used to evaluate the effects of the compounds as inhibitors of the MAP kinase pathway. […] TR-FRET (Time resolved fluorescence resonance energy transfer) detection technology is used for the read out. […] Each individual IC50 is determined using a 10 point dose response curve generated by GraphPad Prism software Version 4 (San Diego, Calif., USA) using non linear regression curve fit for sigmoidal dose response (variable slope). […]
READOUT_TYPE: % inhibition (%)
API: value field is a number in %; no unit string.

Consider Cc1c(Nc2ccc(I)cc2F)c(NS(=O)(=O)C2(CO)CC2)c2n(c1=O)CCS2 [Example 22A] . Its measured % inhibition is 97

Consider Cc1c(Nc2ccc(I)cc2F)c(NS(=O)(=O)C2CC(C(CO)CO)C2)c2n(c1=O)CCO2 (centres unmarked) [Example 15A] . Its measured % inhibition is 100

Consider Cc1c(Nc2ccc(I)cc2F)c(NS(=O)(=O)C2CC(O)C2)c2n(c1=O)CCS2 (centres unmarked) [Example 25A] . Its measured % inhibition is 100

Consider Cc1c(Nc2ccc(I)cc2F)c(NS(=O)(=O)C2(CCCO)CC2)c2n(c1=O)CCO2 [Example 12A] . Its measured % inhibition is 100

Consider Cc1c(Nc2ccc(Br)cc2F)c(NS(=O)(=O)C2CC2)c2n(c1=O)CCN2Cc1ccccc1 . Its measured % inhibition is 70

Consider Cc1c(Nc2ccc(I)cc2F)c(NS(=O)(=O)C2CC2CO)c2n(c1=O)CCO2 (centres unmarked) . Its measured % inhibition is 100

Consider Cc1c(Nc2ccc(I)cc2F)c(NS(=O)(=O)C2(CC(O)CO)CC2)c2n(c1=O)CCS2 (centres unmarked) [Example 20A] . Its measured % inhibition is 100

Consider Cc1c(Nc2ccc(Br)cc2F)c(NS(=O)(=O)C2CC2)c2n(c1=O)CCN2 . Its measured % inhibition is 100
